Biological target: T1, GHRH receptor of human pituitary membranes (human, UniProt Q02643)
T1 sequence: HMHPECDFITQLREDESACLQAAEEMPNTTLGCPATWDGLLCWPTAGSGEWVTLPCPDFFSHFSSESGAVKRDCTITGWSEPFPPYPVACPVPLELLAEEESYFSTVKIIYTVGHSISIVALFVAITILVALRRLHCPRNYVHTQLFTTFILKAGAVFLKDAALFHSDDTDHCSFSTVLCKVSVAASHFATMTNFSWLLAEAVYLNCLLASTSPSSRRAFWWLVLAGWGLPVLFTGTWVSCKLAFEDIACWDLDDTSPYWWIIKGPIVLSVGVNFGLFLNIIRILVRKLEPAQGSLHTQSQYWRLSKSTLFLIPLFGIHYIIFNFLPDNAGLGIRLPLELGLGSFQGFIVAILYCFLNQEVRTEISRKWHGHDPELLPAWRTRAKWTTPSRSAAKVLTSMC
Assay: competition vs 125I-[His1,Nle27]hGHRH(1-32)NH2, human pituitary membranes
pIC50: −log10 of the molar value. Non-standard residues stand in square brackets, D forms with d. No end group written: not given here. *: point of attachment. NMeY = CN[C@@H](Cc1ccc(O)cc1)C(=O)O; Agmatine = N=C(N)NCCCCN*; Nle = CCCC[C@H](N)C(=O)O; Orn = NCCC[C@H](N)C(=O)O; Abu = CC[C@H](N)C(=O)O
measurementKind: pIC50

INSERT INTO results (binder, reading) VALUES
  ('[NMeY][dA]DAIFTNSYR[Orn]VL[Abu]QLSAR[Orn]LLQDI[Nle]DR-NHMe [P-27409 [N-Me-Tyr^1, D-Ala^2, Orn^12, Abu^15, Orn^21, Nle^27, Asp^28]hGHRH(1-29)NH-CH3]', 9.00),
  ('[NMeY][dA]DAIFTNSYR[Orn]VL[Abu]QLSAR[Orn]LLQDI[Nle]D[Agmatine] [P-20367 [N-Me-Tyr^1, D-Ala^2, Orn^12, Abu^15, Orn^21, Nle^27, Asp^28, Agm^29]hGHRH(1-29)NH2]', 8.96),
  ('[NMeY][dA]DAIFTTSYR[Orn]VL[Abu]QLSAR[Orn]LLQDI[Nle]DR-NHMe [P-27410 [N-Me-Tyr^1, D-Ala^2, Thr^8, Orn^12, Abu^15, Orn^21, Nle^27, Asp^28]hGHRH(1-29)NH-CH3]', 8.89),
  ('[NMeY][dA]DAIFTQSYR[Orn]VL[Abu]QLSAR[Orn]LLQDI[Nle]DR-NHEt [P-28420 [N-Me-Tyr^1, D-Ala^2, Gln^8, Orn^12, Abu^15, Orn^21, Nle^27, Asp^28]hGHRH(1-29)NH-CH2-CH3]', 8.57),
  ('YADAIFTNSYRKVLGQLSARKLLQDIMSRQ (Dat^1; D-Abu^2; Orn^12; Abu^15; Orn^21; Nle^27; Gab^30 (in place of Gln^30); C-terminal -NH2) [P-25504 [Dat^1, D-Abu^2, Orn^12, Abu^15, Orn^21, Nle^27, Gab^30]hGHRH(1-30)NH2]', 8.55),
  ('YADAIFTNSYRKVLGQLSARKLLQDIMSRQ (Dat^1; D-Ala^2; Fpa5^6; Orn^12; Abu^15; Orn^21; Nle^27; Gab^30 (in place of Gln^30); C-terminal -NH2) [P-25502 [Dat^1, D-Ala^2, Fpa5^6, Orn^12, Abu^15, Orn^21, Nle^27, Gab^30]hGHRH(1-30)NH2]', 8.67);
